# TARGET_ENTITY: Glutamate receptor ionotropic, NMDA 2B (Homo sapiens)
# Sequence (Q13224 whole entry): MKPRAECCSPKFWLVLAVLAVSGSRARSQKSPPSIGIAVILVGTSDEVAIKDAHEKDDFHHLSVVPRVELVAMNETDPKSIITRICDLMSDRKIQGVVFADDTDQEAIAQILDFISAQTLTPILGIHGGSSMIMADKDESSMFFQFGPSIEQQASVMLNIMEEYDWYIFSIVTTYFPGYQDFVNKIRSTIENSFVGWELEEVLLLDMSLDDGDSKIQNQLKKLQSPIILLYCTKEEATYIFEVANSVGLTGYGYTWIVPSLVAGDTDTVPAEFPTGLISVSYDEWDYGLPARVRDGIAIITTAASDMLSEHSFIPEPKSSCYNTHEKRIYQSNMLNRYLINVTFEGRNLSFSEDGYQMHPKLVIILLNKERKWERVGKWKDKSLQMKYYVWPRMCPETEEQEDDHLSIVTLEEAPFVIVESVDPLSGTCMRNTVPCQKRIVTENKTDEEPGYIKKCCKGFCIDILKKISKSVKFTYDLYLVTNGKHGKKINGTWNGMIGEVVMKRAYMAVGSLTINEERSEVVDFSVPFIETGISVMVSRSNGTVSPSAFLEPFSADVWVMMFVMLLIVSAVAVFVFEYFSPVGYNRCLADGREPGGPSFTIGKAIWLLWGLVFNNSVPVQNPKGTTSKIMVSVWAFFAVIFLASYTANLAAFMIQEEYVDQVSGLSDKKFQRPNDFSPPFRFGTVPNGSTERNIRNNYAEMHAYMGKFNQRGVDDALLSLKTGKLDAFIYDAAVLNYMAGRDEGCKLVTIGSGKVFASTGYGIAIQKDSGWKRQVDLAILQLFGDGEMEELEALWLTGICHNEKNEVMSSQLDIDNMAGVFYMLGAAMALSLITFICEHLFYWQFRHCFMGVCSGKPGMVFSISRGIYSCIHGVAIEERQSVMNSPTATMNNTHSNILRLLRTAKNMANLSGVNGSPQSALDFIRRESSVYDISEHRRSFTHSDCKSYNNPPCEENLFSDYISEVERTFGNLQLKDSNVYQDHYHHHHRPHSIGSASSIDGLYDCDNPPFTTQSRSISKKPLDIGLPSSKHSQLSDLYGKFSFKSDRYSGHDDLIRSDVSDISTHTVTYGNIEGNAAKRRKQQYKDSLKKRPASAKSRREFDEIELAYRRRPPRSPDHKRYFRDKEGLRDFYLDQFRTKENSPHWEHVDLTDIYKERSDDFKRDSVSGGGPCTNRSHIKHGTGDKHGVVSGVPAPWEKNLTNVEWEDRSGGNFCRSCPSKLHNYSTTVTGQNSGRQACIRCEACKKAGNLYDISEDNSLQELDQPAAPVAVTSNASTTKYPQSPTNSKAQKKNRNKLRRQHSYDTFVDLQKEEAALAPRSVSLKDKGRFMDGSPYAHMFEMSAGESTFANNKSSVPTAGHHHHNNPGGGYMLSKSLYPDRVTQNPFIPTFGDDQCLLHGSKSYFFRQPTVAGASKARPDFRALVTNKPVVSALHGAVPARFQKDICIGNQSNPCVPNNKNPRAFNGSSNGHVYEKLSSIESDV
# ASSAY_TEXT: Binding affinity to GluN2B (unknown origin)
QUANTITY_NAME: Ki (nM)
Numeric answer only, unit nM assumed.

Task: Dear colleague, I am looking for the recorded Ki of the following compound: O=c1[nH]c2ccc([S+]([O-])CCN3CCC(Cc4ccc(F)cc4)CC3)cc2o1 (stereo unspecified)
Output: 30

###

# ASSAY_TEXT: Displacement of [3H]DTG from sigma2 receptor in rat liver homogenate incubated for 120 mins by solid scintillation counting analysis
# Assay type: tissue-based
QUANTITY_NAME: pKi
// returns pKi (minus log10 of molar concentration), number only

Task: # input compound: Cn1c(=O)n(C)c2cc3c(cc21)CCCC(NCCCc1ccccc1)C3 (racemic) ; wanted: its pKi
Output: 6.26

Attention now shifts to the item below.
Task: # lookup: pKi of Cc1ccccc1NC(=N)Nc1ccccc1C
Output: 7.24

Cited source: ChEMBL document CHEMBL3797194
